target: UniProt P49841; assay: GSK-3β human kinase inhibition, SPA; type: biochemical; settings: read-out: GSK3b pIC50 (converted)
Sequence (P49841 whole entry): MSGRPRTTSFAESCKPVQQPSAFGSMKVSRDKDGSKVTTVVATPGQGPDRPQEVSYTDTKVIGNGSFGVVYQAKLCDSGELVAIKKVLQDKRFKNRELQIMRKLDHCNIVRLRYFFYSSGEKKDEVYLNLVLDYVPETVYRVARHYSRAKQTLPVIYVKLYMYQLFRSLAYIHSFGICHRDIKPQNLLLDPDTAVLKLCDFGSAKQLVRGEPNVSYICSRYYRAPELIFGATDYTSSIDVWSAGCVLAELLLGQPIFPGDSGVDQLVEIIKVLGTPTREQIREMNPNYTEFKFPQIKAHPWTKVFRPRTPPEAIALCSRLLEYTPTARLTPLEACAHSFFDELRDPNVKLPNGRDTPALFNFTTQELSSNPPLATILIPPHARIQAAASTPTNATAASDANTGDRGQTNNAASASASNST
For each of the compounds below, state its IC50.

IN: Quick one: IC50 of O=C1NCCCNCc2ccc(cc2)-c2ccnc(n2)Nc2ccc(N3CCOCC3)c(c2)CN2C[C@H](O)C[C@@H]12 ?
OUT: > 10 µM

IN: Thanks! And COc1ccc2cc1CN(C)CCNC(=O)C1CCN(CC1)Cc1cccc(c1)Nc1nccc-2n1 ?
OUT: > 10 µM

IN: Thanks! And O=C1NCc2cccc(c2)-c2ccnc(n2)Nc2cc(ccc2Cl)CN2CCC[C@@H]12 ?
OUT: > 10 µM

IN: Thanks! And COc1cc2cc(c1)Nc1nccc(n1)-c1ccc(cc1)CN(C)CCNC(=O)[C@@H]1CCCN1C2 ?
OUT: > 10 µM

IN: Thanks! And COc1ccc2cc1CNCCCNC(=O)CN1CCN(CC1)Cc1cc(ccc1N1CCOCC1)Nc1nccc-2n1 ?
OUT: > 10 µM

IN: Thanks! And O=C1NCCNCc2ccc(cc2)-c2ccnc(n2)Nc2ccc(N3CCOCC3)c(c2)CN2CCC1CC2 ?
OUT: > 10 µM

IN: Thanks! And COc1ccc2cc1CN(C)CCCNC(=O)[C@@H]1CCCN1Cc1cc(cc(NC(C)C)c1)Nc1nccc-2n1 ?
OUT: > 10 µM

IN: Thanks! And O=C1NCc2ccc(cc2)-c2ccnc(n2)Nc2ccc(N3CCOCC3)c(c2)CN2CCC[C@@H]12 ?
OUT: > 10 µM

IN: Thanks! And O=C1CN2CCN(CC2)Cc2cc(ccc2N2CCOCC2)Nc2nccc(n2)-c2ccc(cc2)CNCCCN1 ?
OUT: > 10 µM

IN: Thanks! And COc1ccc2cc1CNCCNC(=O)C1CCN(CC1)Cc1cc(ccc1N1CCOCC1)Nc1nccc-2n1 ?
OUT: > 10 µM

IN: Thanks! And COc1ccc2cc1CN(C)CCNC(=O)[C@@H]1CCCN1Cc1cc(cc(N3CCOCC3)c1)Nc1nccc-2n1 ?
OUT: 5.13 µM

IN: Thanks! And CN1CCN(C(=O)c2cc3cc(c2)Nc2nccc(n2)-c2cccc(c2)CNC(=O)[C@@H]2CCCN2C3)CC1 ?
OUT: 0.525 µM

IN: Thanks! And CN1CCNC(=O)CN2CCN(CC2)Cc2cc(cc(N3CCOCC3)c2)Nc2nccc(n2)-c2ccc(cc2)C1 ?
OUT: 4.37 µM

IN: Thanks! And O=C(NC1CCOCC1)c1ccc2cc1CN1CCC[C@H]1C(=O)NCc1cccc(c1)-c1ccnc(n1)N2 ?
OUT: 0.204 µM

IN: Thanks! And C[C@@H]1NCc2ccc(Cl)c(c2)Nc2nccc(n2)-c2cccc(c2)CNC1=O ?
OUT: > 10 µM

IN: Thanks! And CN1CCCNC(=O)C2CCN(CC2)Cc2cc(cc(N3CCOCC3)c2)Nc2nccc(n2)-c2ccc(cc2)C1 ?
OUT: > 10 µM

Values compiled from patent US8609836B2.
